Target: human B1R receptor (bradykinin 1 receptor) (Homo sapiens, UniProt P46663)
Construct: host or cells: CHO K1 cells (hB1R cells)
Sequence (P46663 whole entry): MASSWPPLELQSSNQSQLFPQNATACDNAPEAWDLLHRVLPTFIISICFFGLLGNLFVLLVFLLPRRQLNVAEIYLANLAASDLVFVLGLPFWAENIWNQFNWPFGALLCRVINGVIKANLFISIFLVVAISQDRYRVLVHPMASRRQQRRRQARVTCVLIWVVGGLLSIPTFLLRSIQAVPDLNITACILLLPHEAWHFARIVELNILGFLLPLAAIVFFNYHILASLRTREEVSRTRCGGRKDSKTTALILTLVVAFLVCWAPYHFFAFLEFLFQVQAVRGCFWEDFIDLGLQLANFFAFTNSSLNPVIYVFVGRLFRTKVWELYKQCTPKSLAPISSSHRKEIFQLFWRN
Assay: FLIPR Ca2+ assay (Fluo-4) on CHO K1 cells stably transfected with the human B1R gene; % activation and % inhibition at 10 μM
Format: cell-based
Conditions: CHO-K1, test substance 10 μM; CHO K1 hB1R cells; Ca2+ inflow after 0.5 nM Lys-Des-Arg9-bradykinin; read-out: B1R antagonism, human [10 μM] % inhibition
This section presents compounds with their documented inhibition at 10 µM values.
The reply should be a number in %, with the unit left off.

INPUT: Sample COc1ccc(S(=O)(=O)N(C)CCOCC(=O)N2CCC(O)(Cc3ccccc3)CC2)cc1 — what was its inhibition at 10 µM?
OUTPUT: 8.5

INPUT: Sample COc1cc(C)c(S(=O)(=O)N2CCCCC2CCC(=O)N2CCC(O)(c3cccnc3)CC2)c(C)c1 (stereo not drawn) — what was its inhibition at 10 µM?
OUTPUT: 106

Could you now consider this next compound?
INPUT: Sample COc1cc(C)c(S(=O)(=O)N(CCOCC(=O)N2CCC(O)(c3cccc(C(F)(F)F)c3)CC2)CC2CC2)c(C)c1C — what was its inhibition at 10 µM?
OUTPUT: 106

---

Target: human B1R receptor (bradykinin 1 receptor) (Homo sapiens)
Construct: host or cells: CHO K1 cells (hB1R cells)
Test: FLIPR Ca2+ assay (Fluo-4) on CHO K1 cells stably transfected with the human B1R gene; % activation and % inhibition at 10 μM
Assay type: cell-based
Conditions: CHO-K1, test substance 10 μM; CHO K1 hB1R cells; Ca2+ inflow after 0.5 nM Lys-Des-Arg9-bradykinin; read-out: B1R antagonism, human [10 μM] % inhibition
Kindly return true (1) if reported inhibition at 10 µM is no lower than 30%; return false (0) if it is lower.

INPUT: Threshold query (inhibition at 10 µM >= 30%) on O=C(COCC1CCCCN1S(=O)(=O)c1csc2ccccc12)N1CCC(O)(c2cccnc2)CC1 (stereo not shown) [Example 273]
OUTPUT: true (1)

INPUT: Threshold query (inhibition at 10 µM >= 30%) on COc1cc(C)c(S(=O)(=O)N2CCCC(OCC(=O)N3CCC(O)(Cc4ccccc4)CC3)C2)c(C)c1C (stereo not shown) [Example 11]
OUTPUT: true (1)

INPUT: Threshold query (inhibition at 10 µM >= 30%) on O=C(COCC1Cc2ccccc2CN1S(=O)(=O)c1ccc(Cl)cc1Cl)N1CCC(O)(Cc2ccccc2)CC1 (stereo not shown) [Example 81]
OUTPUT: true (1)

INPUT: Threshold query (inhibition at 10 µM >= 30%) on O=C(COCC1CCCCN1S(=O)(=O)c1c(Cl)cccc1Cl)N1CCC(O)(c2cccc(C(F)(F)F)c2)CC1 (stereo not shown) [Example 235]
OUTPUT: true (1)

INPUT: Threshold query (inhibition at 10 µM >= 30%) on COc1ccc(S(=O)(=O)N2CCCC2COCC(=O)N2CCC(O)(Cc3ccccc3)CC2)cc1 (stereo not shown) [Example 57]
OUTPUT: false (0)

---
INPUT: Threshold query (inhibition at 10 µM >= 30%) on COc1cc(C)c(S(=O)(=O)N(CCOCC(=O)N2CCC(O)(c3ccc(Br)cc3)CC2)CC2CC2)c(C)c1C [Example 205]
OUTPUT: true (1)

---

Target: human B1R receptor (bradykinin 1 receptor) (Homo sapiens)
Construct: host or cells: CHO K1 cells (hB1R cells)
Assay: FLIPR Ca2+ assay (Fluo-4) on CHO K1 cells stably transfected with the human B1R gene; % activation and % inhibition at 10 μM
Format: cell-based
Conditions: CHO-K1, test substance 10 μM; CHO K1 hB1R cells; Ca2+ inflow after 0.5 nM Lys-Des-Arg9-bradykinin; read-out: B1R antagonism, human [10 μM] % inhibition
Kindly return class 1 if reported inhibition at 10 µM is no lower than 50%; return class 0 if it is lower.

Reference set (10 entries):
INPUT: Threshold query (inhibition at 10 µM >= 50%) on CN(CCOCC(=O)N1CCC(O)(c2cccnc2)CC1)S(=O)(=O)c1ccc(Cl)s1
OUTPUT: class 0

INPUT: Threshold query (inhibition at 10 µM >= 50%) on Cc1cc(S(=O)(=O)N(C)CCOCC(=O)N2CCC(O)(c3cccnc3)CC2)c(Cl)cc1Cl
OUTPUT: class 1

INPUT: Threshold query (inhibition at 10 µM >= 50%) on O=C(COCC1CCCN1S(=O)(=O)c1c(Cl)cc(C(F)(F)F)cc1Cl)N1CCC(O)(c2ccc(Cl)c(C(F)(F)F)c2)CC1 (centres unmarked)
OUTPUT: class 0

INPUT: Threshold query (inhibition at 10 µM >= 50%) on CN(CCCC(=O)N1CCC(O)(c2cccnc2)CC1)S(=O)(=O)c1ccc2ccccc2c1
OUTPUT: class 1

INPUT: Threshold query (inhibition at 10 µM >= 50%) on CN(CCOCC(=O)N1CCC(O)(c2cccnc2)CC1)S(=O)(=O)c1c(Cl)cc(Cl)cc1Cl
OUTPUT: class 1

INPUT: Threshold query (inhibition at 10 µM >= 50%) on COc1cc(C)c(S(=O)(=O)N(CCOCC(=O)N2CCC(O)(c3cccs3)CC2)CC2CC2)c(C)c1C
OUTPUT: class 1

INPUT: Threshold query (inhibition at 10 µM >= 50%) on O=C(COCC1CCCN1S(=O)(=O)c1c(Cl)cccc1Cl)N1CCC(O)(c2cccnc2)CC1 (centres unmarked)
OUTPUT: class 1

INPUT: Threshold query (inhibition at 10 µM >= 50%) on CN(CCOCC(=O)N1CCC(O)(c2ccc(Cl)cc2)CC1)S(=O)(=O)c1cc(F)cc(F)c1
OUTPUT: class 0

INPUT: Threshold query (inhibition at 10 µM >= 50%) on O=C(COCC1Cc2ccccc2CN1S(=O)(=O)c1ccc(Cl)cc1Cl)N1CCC(O)(c2ccccc2)CC1 (centres unmarked)
OUTPUT: class 1

INPUT: Threshold query (inhibition at 10 µM >= 50%) on COc1cc(C)c(S(=O)(=O)N2CCCC2COCC(=O)N2CCC(O)(c3cccnc3)CC2)c(C)c1 (centres unmarked)
OUTPUT: class 1

---
INPUT: Threshold query (inhibition at 10 µM >= 50%) on COc1ccc(S(=O)(=O)N2CCCCC2CCOCC(=O)N2CCC(O)(Cc3ccccc3)CC2)cc1 (centres unmarked)
OUTPUT: class 0

INPUT: Threshold query (inhibition at 10 µM >= 50%) on COc1cc(C)c(S(=O)(=O)N2CCN(CCOCC(=O)N3CCC(O)(c4cccnc4)CC3)CC2)c(C)c1C
OUTPUT: class 0

---

Biological target: human B1R receptor (bradykinin 1 receptor) (Homo sapiens, UniProt P46663)
Construct: host or cells: CHO K1 cells (hB1R cells)
Assay: FLIPR Ca2+ assay (Fluo-4) on CHO K1 cells stably transfected with the human B1R gene; % activation and % inhibition at 10 μM
Assay type: cell-based
Conditions: CHO-K1, test substance 10 μM; CHO K1 hB1R cells; Ca2+ inflow after 0.5 nM Lys-Des-Arg9-bradykinin; read-out: B1R antagonism, human [10 μM] % inhibition
Counter-ions that a name gives are not always drawn.
This section presents compounds with their documented inhibition at 10 µM values.
The reply should be a number in %, with the unit left off.

Below: 2 compounds and their reported inhibition at 10 µM.
INPUT: Sample COc1cc(C)c(S(=O)(=O)N2CCCC2COCC(=O)N2CCC(O)(c3cccs3)CC2)c(C)c1 (stereo not shown) — what was its inhibition at 10 µM?
OUTPUT: 105

INPUT: Sample COc1cc(C)c(S(=O)(=O)N(CCOCC(=O)N2CCC(O)(c3cccs3)CC2)CC(C)C)c(C)c1C — what was its inhibition at 10 µM?
OUTPUT: 98.4

---
INPUT: Sample COc1cc(C)c(S(=O)(=O)N(C)CCOCC(=O)N2CCC(O)(Cc3cccnc3)CC2)c(C)c1 [Example 279, hydrochloride] — what was its inhibition at 10 µM?
OUTPUT: 103

INPUT: Sample COc1cc(C)c(S(=O)(=O)N2CCCCC2COCC(=O)N2CCC(O)(c3ccncc3)CC2)c(C)c1 (stereo not shown) — what was its inhibition at 10 µM?
OUTPUT: 104

INPUT: Sample COc1cc(C)c(S(=O)(=O)N(C)CCOCC(=O)N2CCC(O)(Cc3ccncc3)CC2)c(C)c1 — what was its inhibition at 10 µM?
OUTPUT: 100

INPUT: Sample COc1cc(C)c(S(=O)(=O)N2CCC(COCC(=O)N3CCC(O)(c4ccc(Cl)cc4)CC3)C2)c(C)c1 (stereo not shown) — what was its inhibition at 10 µM?
OUTPUT: 99.2

INPUT: Sample CN(CCCC(=O)N1CCC(O)(c2cccnc2)CC1)S(=O)(=O)c1ccc(Cl)cc1Cl — what was its inhibition at 10 µM?
OUTPUT: 91.2
